Assay: Human HepG2 cell viability assay in 384 well format
Format: toxicity, cell-based
Parameters: dose 125 nL, time 70.5 hour; concentration not given beside the values
Details: HepG2 cells, read-out: Inhibition
Measured Metric: cytotoxicity at 70.5 h (%)
Please reply with the bare figure in % and do not write the unit itself.

// solved cases for cytotoxicity at 70.5 h follow
COc1ccc(C2CC(=O)NCc3nc4ccccn4c32)cn1 (configuration not stated) :: -1.02
Cc1cc(C(=O)NCCC(C)C)ccc1NS(C)(=O)=O :: -11
O=C(CCOc1ccc(Cl)cc1)N1CCN(c2cnccn2)CC1 :: -11.5
COCCn1ccnc1C1CCN(Cc2ccccc2C#N)CC1 :: -8.7
CN1CC2(CCN(Cc3cccnc3)CC2)c2cc(F)ccc21 :: -3.7
Cc1c(C(=O)N2CC(Cc3nccc4ccn(C)c34)C2)cnn1C :: -6.29
O=C(CN1CCCCC1C1OCCO1)Nc1ccc(F)c(F)c1 (configuration not stated) :: -2.55
CCC1CN(C)c2ccccc2CN1C(=O)Nc1ccc(C)cc1 (configuration not stated) :: -2.3
Cc1ncsc1C(=O)N1CCC(Nc2cccnn2)CC1 :: -7.04
Cc1nc(S(=O)(=O)NCCC(=O)NCc2ccc(C#N)cc2)cn1C :: -0.237

-- ask Give a short answer stating reported cytotoxicity at 70.5 h for CCS(=O)(=O)N1CCC2(CC(=O)N(c3ccc4c(c3)OCO4)C2)C1 (configuration not stated) .
-- reply 7.63

-- ask Tell me its cytotoxicity at 70.5 h given O=C(c1ccsc1)N1CCN2C[C@H](OCc3cccnc3)C[C@H]2C1 as the entry.
-- reply -13.4

-- ask Using known records, supply cytotoxicity at 70.5 h for CN(C)S(=O)(=O)N1CCCC1C(=O)N1CCSCC1 (configuration not stated)
-- reply 22.8

-- ask Could you please provide reported cytotoxicity at 70.5 h for O=C(NC1CC1)N1CCc2ncc(CN3CCOCC3)n2CC1 ? Thanks!
-- reply -16

-- ask Output measured cytotoxicity at 70.5 h for this item: CCCc1n[nH]c(C2CN(CCNS(C)(=O)=O)CCO2)n1 (configuration not stated)
-- reply 25.5

-- ask For CCCc1cc(C(=O)N2CCC3(CCCN(CCOC)C3=O)C2)cs1 (configuration not stated) , write its cytotoxicity at 70.5 h.
-- reply -7.15

-- ask Provide only the value of recorded cytotoxicity at 70.5 h for O=C(c1cnc2c(cnn2C2CCCC2)c1)N1CCN(CCO)CC1
-- reply 2.02

-- ask Note down cytotoxicity at 70.5 h recorded for COCC(=O)N(CCC(=O)OC)CC1CCCO1 (configuration not stated)
-- reply -10.3

-- ask Tell us which cytotoxicity at 70.5 h value is on record for Cc1cc(C(=O)NC2CCN(C(=O)Nc3cccnc3)CC2)c(C)o1
-- reply -9.09

-- ask Identify measured cytotoxicity at 70.5 h corresponding to FC(F)(F)COCCN1CCc2cncnc2C1
-- reply -2.38

-- ask Using known records, supply cytotoxicity at 70.5 h for COc1ccc(C2CC(=O)NCc3nc(N(C)C)sc32)c(O)c1 (configuration not stated)
-- reply 2.48

-- ask Give the measured cytotoxicity at 70.5 h for Cc1cc(S(=O)(=O)N(C)CC(N)=O)ccc1Br
-- reply -2.54

-- ask Could you please provide reported cytotoxicity at 70.5 h for O=C(NCc1ccccn1)[C@H]1COC[C@H]2CN(C3CCCC3)C[C@H]21 ? Thanks!
-- reply 40.2

-- ask Please give measured cytotoxicity at 70.5 h of the following entry: O=C(NCc1cc(C2CC2)n(C2CCCC2)n1)C1CC1
-- reply -9.71

-- ask Supply reported cytotoxicity at 70.5 h belonging to this compound: O=C(O)CN(C(=O)c1ccccc1)[C@H]1C[C@H]2CCOC[C@H]2C1
-- reply -10.1

-- ask Specify measured cytotoxicity at 70.5 h for COCCNC(=O)[C@H]1C[C@@H]2CCN(CCc3ccccc3)C[C@H]2O1 .
-- reply -11.2

-- ask Tell us which cytotoxicity at 70.5 h value is on record for Cc1cc(=O)[nH]c(-n2nc(C)c(CCC(=O)NCc3ccco3)c2C)n1
-- reply 31.1

-- ask Provide cytotoxicity at 70.5 h value for the following compound: O=C(C1CC=CC1)N1CCCn2nnc(CNc3ncccn3)c2C1
-- reply 0.685
